assayComment: soluble fraction after stress (log2 fold change); higher = more stays soluble; pooled small domains, quantitative proteomics
protocolConditions: stress: pH 4

biosequence: HMNQSYQLWIKDDELGPTPRSVGVLNEHFEVDPAALTNYDAELLRRATFGISLEPRGGSPTGQP
soluble fraction (log2): -0.688
//
biosequence: HMLSVRNRMSDVLKSLDDGEFHRFESLFNLEEGRLGVVVTFLAMLELAKEMLVEIVQNESLGPIYLKSR
soluble fraction (log2): 0.144
//
biosequence: HMAIRLIKASREFNVGISTIVEFLEKKGHAIDSDPNSKIPDELYQLIEKEFQTEGSVKKAAKQI
soluble fraction (log2): -0.335
//
biosequence: HMIAGHLQEKKGFFYIVLSYPDAAGKRKTKWFPTKLSVKGNKKKAEVMLMDARKTFVPPETPL
soluble fraction (log2): 0.207

---

Listing of entries alongside the reported soluble fraction (log2).
assayComment: soluble fraction after stress (log2 fold change); higher = more stays soluble; pooled small domains, quantitative proteomics
protocolConditions: stress: pH 4

biosequence: HMENYTYKYATSANVNIREEPNTDSTILGKTLLNTEFQVVEDVDGWSKITTEAGYAYIKSEYLSDTE
soluble fraction (log2): -0.392
--
biosequence: HMTYTGTVTGVDEGGLRVRSSTSTENTSNVITKVYTGDTFDVLDTVYNGSAKWYKIGFTYNGTYTYGYVSA
soluble fraction (log2): -0.518
--
biosequence: HMTLTPEQQAARRSEIVDIALRLIAENGFQKTSMREIADLAKMGKSSLYDFFKTKDEIAVYAMEKK
soluble fraction (log2): -0.856
--
biosequence: HMKNIINFIVKEDDNNKRVDMILANHDKSLSRTRVKNLILDSKLKINERIVQDPSIKTKLNDKIELEIVEP
soluble fraction (log2): 0.251
--
biosequence: HMAHTGGNTLTREKAVSVRSASDALLFEIHWNETPREDILSTREEKVDGKTYSIITIRTGKGREDHYYLLS
soluble fraction (log2): 0.295

---

assayComment: soluble fraction after stress (log2 fold change); higher = more stays soluble; pooled small domains, quantitative proteomics
protocolConditions: stress: pH 4
# if value of soluble fraction (log2) reaches -0.4, tag condition met; if it stays below, tag condition not met

biosequence: HMTIELAEGQHFLQISKSGAPMGNVVRDLIIQTLKITNGNQIKAAKILGISRAKLRYRIEQLGINITGKNI
category: condition met
//
biosequence: HMQNNKITIYISGAVNRPGIVTIESDKRLYDAVELLGGTTKEADLNGVNLSVRLEDEQHYIIPKIGEA
category: condition not met
//
biosequence: HMAAPPPLSDYRNMQEAEHIRNILLQHHGNVRRAAAALELSRPYLYQKMKQLGINIAELRELSLSHSS
category: condition met
//
biosequence: HMRYFDDEELNNKFLEFLSMRKKIRKPVRTDRALKALLKKLHELSGGDVGLMKQIIDQSLDKEWLGLFEL
category: condition not met
//
biosequence: HMHAEEIAREAKEALERGEEFHFAGITVRSEEALEFLEEWLRKFF
category: condition not met
//
biosequence: HMWDEMKDQKLVEALLLLREDERKLIYQHVFEERTFDDISRINGLPPYKVKGIYYYAIRKIRKWMG
category: condition not met
//
biosequence: HMIVVMARETSTDDLEAIRERIESRGMVAQINLGVERTVIGVMGSIPPDFKDEMELMNGVVEVVMISK
category: condition not met
